Biological target: UniProt P43115
Assay: Cellular in vitro assay for determining EP3 receptor activity (human EP3 cell line, sulprostone-stimulated calcium luminescence)
Settings: CHO cells expressing human EP3 and mitochondrial Clytin; antagonist mode, sulprostone at EC50; read-out: EP3 CHO mtCLY ANTAG IC50
pIC50: −log10 of the molar value. Counter-ions that a name gives are not always drawn.
Values of pIC50 greater than or equal to 9 map to T; values below map to F.

{"COMPOUND": "Cc1ccc(-c2cn3nc(C(=O)N[C@H](CCO)c4ccc(F)cc4)c(C(F)(F)F)c3c(=O)[nH]2)cc1Cl [6-196]", "CLASS": "T"}
{"COMPOUND": "CN(C)C[C@@H](NC(=O)c1cc2c(=O)[nH]c(-c3ccc4ccccc4c3)cn2n1)c1ccccc1 [Example 1-38, formic acid salt]", "CLASS": "F"}
{"COMPOUND": "Cc1ccc(-c2cn3nc(C(=O)NCC(N)C(F)(F)F)c(C4CC4)c3c(=O)[nH]2)cc1F (single isomer, unassigned) [6-396]", "CLASS": "F"}

Quick check, pIC50 >= 9? O=C(NCCC(F)(F)F)c1cc2c(=O)[nH]c(-c3ccc4cccc(F)c4c3)cn2n1 [6-41]
F

Quick check, pIC50 >= 9? O=C(NCc1ccccc1)c1cc2c(=O)[nH]c(-c3ccc4ccccc4c3)cn2n1 [6-16]
F

---

Molecular target: human EP3 receptor (Homo sapiens, UniProt P43115)
Sequence (P43115 whole entry): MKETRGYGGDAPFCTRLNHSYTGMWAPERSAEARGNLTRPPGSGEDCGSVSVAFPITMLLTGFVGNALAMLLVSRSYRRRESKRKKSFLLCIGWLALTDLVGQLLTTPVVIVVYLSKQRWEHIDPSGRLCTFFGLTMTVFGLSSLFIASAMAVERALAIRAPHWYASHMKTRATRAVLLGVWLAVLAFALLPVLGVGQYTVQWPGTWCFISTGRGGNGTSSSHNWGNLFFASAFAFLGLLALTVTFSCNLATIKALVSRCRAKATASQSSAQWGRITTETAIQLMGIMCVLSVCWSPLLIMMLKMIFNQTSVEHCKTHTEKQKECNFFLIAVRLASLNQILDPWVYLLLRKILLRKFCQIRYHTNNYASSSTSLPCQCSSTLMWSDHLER
Assay: Cellular in vitro assay for determining EP3 receptor activity (human EP3 cell line, sulprostone-stimulated calcium luminescence)
Settings: CHO cells expressing human EP3 and mitochondrial Clytin; antagonist mode, sulprostone at EC50; read-out: EP3 CHO mtCLY ANTAG IC50
Method: B-1. Cellular In Vitro Assay for Determining EP3 Receptor Activity The identification of antagonists of the EP3 receptor from humans and rats as well as the quantification of the activity of the compounds of the invention was carried out using recombinant cell lines. […] Antagonists inhibit the receptor signaling, leading to reduced calcium release and luminescence. The bioluminescence of the cell lines is detected using a suitable luminometer (Trends Pharmacol. Sci. 1996, 17, 235-237). […]
Counter-ions that a name gives are not always drawn.
Provide the recorded pIC50 for the entries that follow.
One number for each entry, as −log10 of the molar value.

Consider the worked cases shown below.
{"COMPOUND": "Cc1cc(-c2cn3nc(C(=O)N[C@@H](C)C(C)C)c(C4CC4)c3c(=O)[nH]2)ccc1Cl [6-302]", "pIC50": 8.53}
{"COMPOUND": "O=C(N[C@H](CCO)c1ccc(F)cc1)c1nn2cc(-c3ccc4ccccc4c3)[nH]c(=O)c2c1C1CC1 [Example 1-144]", "pIC50": 8.52}
{"COMPOUND": "CN1CC(NC(=O)c2cc3c(=O)[nH]c(-c4ccc5ccccc5c4)cn3n2)(c2ccc(F)cc2)C1 [Example 1-49, formic acid salt]", "pIC50": 8.12}
{"COMPOUND": "COc1ccc(C(NC(=O)c2nn3cc(-c4cnc5cccc(C)c5c4)[nH]c(=O)c3c2C(C)C)C2CC2)cc1 (stereo not shown) [Example 4-78]", "pIC50": 8.81}

List reported pIC50 for each of these compounds:
1. COc1cccc(C(CCO)NC(=O)c2nn3c(C)c(-c4ccc5ccccc5c4)[nH]c(=O)c3c2C)c1 (stereo not shown) [Example 3-39]
2. Cc1ccc(-c2cn3nc(C(=O)NC4(c5ccc(F)cc5)CN(C)C4)c(C(C)C)c3c(=O)[nH]2)cc1C [Example 1-91]
3. O=C(NC(CN1CCCC1)c1ccc(F)cc1)c1cc2c(=O)[nH]c(-c3ccc4ccccc4c3)cn2n1 (stereo not shown) [Example 1-44]

[8.74, 9.04, 8.05]
